molecular target: FXR ligand binding domain (GST-FXR LBD fusion protein, human FXR aa 193-473) (Homo sapiens, UniProt Q96RI1); construct: fused on or other part: Glutathione-S-transferase (GST) fused N-terminally to the FXR LBD, used to capture the protein on glutathione SPA beads; experiment: Radioligand binding assay (scintillation proximity, radioligand displacement); conditions: 40 nM GST-FXR LBD on SPA beads, test compound 6×10^−9 M to 2.5×10^−5 M, read-out: h-IC50 Binding
Sequence (Q96RI1 211-486 limits assumed): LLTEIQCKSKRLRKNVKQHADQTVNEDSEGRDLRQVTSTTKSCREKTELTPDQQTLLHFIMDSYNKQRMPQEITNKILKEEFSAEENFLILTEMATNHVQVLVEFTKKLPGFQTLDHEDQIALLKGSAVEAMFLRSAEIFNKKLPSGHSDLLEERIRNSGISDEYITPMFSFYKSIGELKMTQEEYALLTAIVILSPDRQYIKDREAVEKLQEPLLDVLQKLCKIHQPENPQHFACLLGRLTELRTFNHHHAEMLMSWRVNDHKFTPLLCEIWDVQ

# Molecule, IC50 / nM
measured = [
    ("O=C(O)C1(Oc2ccc(OCC(C3CCCCC3)n3c(-c4ccc(Cl)cc4)nc4cc(F)c(F)cc43)cc2)CC1 (single isomer, unassigned; (-)) [Example 121]", 20),
    ("CC(C)(OCc1ccc(C(=O)O)cc1)C(C1CCCCC1)n1c(-c2ccc(Cl)cc2)nc2cc(F)c(F)cc21 (centres unmarked)", 100),
    ("O=C(O)c1cc(F)c(OCC(C2CCCCC2)n2c(-c3ccc(Cl)cc3)nc3ccccc32)c(Cl)c1 (single isomer, unassigned; (-)) [Example 109]", 30),
    ("O=C(O)c1cc(F)c(OCC(C2CCCCC2)n2c(-c3ccc(Cl)cc3)nc3cc(F)c(F)cc32)c(F)c1 (single isomer, unassigned; (-)) [Example 86]", 3),
    ("Cc1ccc(C(=O)O)cc1OCC(C1CCCCC1)n1c(-c2ccc(Cl)cc2)nc2cc(F)c(F)cc21 (centres unmarked)", 200),
    ("Fc1cc2nc(-c3ccc(Cl)cc3)n(C(COc3ccc(-c4nnn[nH]4)cn3)C3CCCCC3)c2cc1F (single isomer, unassigned; (-)) [Example 63]", 90),
    ("O=C(O)c1ccc(OCC(C2CCCCCC2)n2c(-c3ccc(Cl)cc3)nc3cc(F)c(F)cc32)nc1 (centres unmarked)", 300),
    ("Cc1cc(-c2nnn[nH]2)cc(C)c1OCC(C1CCCCC1)n1c(-c2ccc(Cl)cc2)nc2cc(F)c(F)cc21 (single isomer, unassigned; (+)) [Example 72]", 1),
]
